Test system UniProt P27487, IC50 listed for each of the molecules.
Sequence (P27487 whole entry): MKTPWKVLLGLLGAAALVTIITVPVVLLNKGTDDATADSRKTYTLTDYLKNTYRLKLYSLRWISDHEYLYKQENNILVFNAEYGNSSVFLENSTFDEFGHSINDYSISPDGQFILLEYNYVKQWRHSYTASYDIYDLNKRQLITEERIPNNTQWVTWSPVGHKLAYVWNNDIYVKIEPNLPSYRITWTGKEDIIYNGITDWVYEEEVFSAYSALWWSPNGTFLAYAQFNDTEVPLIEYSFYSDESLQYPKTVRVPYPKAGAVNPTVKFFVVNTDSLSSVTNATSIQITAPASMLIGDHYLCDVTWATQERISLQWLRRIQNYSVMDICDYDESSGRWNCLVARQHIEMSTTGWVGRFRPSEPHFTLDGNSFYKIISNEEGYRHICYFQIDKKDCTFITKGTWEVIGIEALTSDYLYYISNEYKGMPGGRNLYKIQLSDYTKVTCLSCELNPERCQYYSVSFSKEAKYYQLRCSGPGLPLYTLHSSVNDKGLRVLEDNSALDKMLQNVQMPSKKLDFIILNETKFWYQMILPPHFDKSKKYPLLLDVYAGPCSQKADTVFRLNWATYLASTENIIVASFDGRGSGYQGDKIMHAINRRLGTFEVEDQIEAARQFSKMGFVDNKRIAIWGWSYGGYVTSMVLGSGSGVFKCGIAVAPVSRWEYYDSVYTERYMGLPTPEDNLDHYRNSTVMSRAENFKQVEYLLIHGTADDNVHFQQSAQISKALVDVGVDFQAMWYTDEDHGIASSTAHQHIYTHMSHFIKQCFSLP

{"columns": ["molecule", "system", "IC50 / nM"],
 "data": [
  ["CC#CCn1c(N2CCC[C@@H](NC(=O)OC(C)(C)C)C2)nc2c1c(=O)n(Cc1nc3ccccc3c(C)c1C#N)c(=O)n2C", "UniProt P27487", 2],
  ["CC#CCn1c(N2CCC[C@@H](NC(=O)OC(C)(C)C)C2)nc2c1c(=O)n(Cc1nc(-c3ccccc3)nc3ccccc13)c(=O)n2C", "UniProt P27487", 9],
  ["CC#CCn1c(N2CCC[C@@H](NC(=O)OC(C)(C)C)C2)nc2c1c(=O)n(Cc1cc(C#N)c3ccccc3n1)c(=O)n2C", "UniProt P27487", 2],
  ["CC#CCn1c(N2CCC[C@@H](NC(=O)OC(C)(C)C)C2)nc2c1c(=O)n(CC(=O)c1ccccc1[N+](=O)[O-])c(=O)n2C", "UniProt P27487", 3],
  ["CC#CCn1c(N2CCC[C@@H](NC(=O)OC(C)(C)C)C2)nc2c1c(=O)n(Cc1ccc3nc(C)c(C)nc3c1)c(=O)n2C", "UniProt P27487", 2],
  ["CC#CCn1c(N2CCCC(NC(=O)OC(C)(C)C)C2)nc2c1c(=O)n(Cc1nc(NCc3ccccc3)c3ccccc3n1)c(=O)n2C (stereo unspecified)", "UniProt P27487", 6]
]}

Provenance of the data: ChEMBL document CHEMBL3638448
